Listed here are compounds together with their documented MIC.
System: Mycobacterium avium
Conditions: 104 mc'2 3

Compound: CSc1ccc2c(c1)N(CCC1CCCCN1C)c1ccccc1S2 (stereo not given)
MIC [µg/mL]: 8
--
Compound: CCCOc1ccc(-c2cn(CCN(CC)CC)c3ccccc3c2=O)cc1
MIC [µg/mL]: 8
--
Compound: CCCOc1ccc(-c2cn(CCN3CCCCC3)c3ccccc3c2=O)cc1
MIC [µg/mL]: 8
--
Compound: CN(C)CCCN1c2ccccc2Sc2ccc(Cl)cc21
MIC [µg/mL]: 8
--
Compound: CCCOc1ccc(-c2cn(CCN3CCCCCC3)c3ccccc3c2=O)cc1
MIC [µg/mL]: 4

====

Tested on: Mycobacterium avium
Conditions: isolate MAV2

Molecule: CCCOc1ccc(-c2cn(CCN3CCCCCC3)c3ccccc3c2=O)cc1
MIC, µg/mL: 3.12
//
Molecule: CCCOc1ccc(-c2cn(CCN3CCCCC3)c3ccccc3c2=O)cc1
MIC, µg/mL: 6.25
//
Molecule: CSc1ccc2c(c1)N(CCC1CCCCN1C)c1ccccc1S2 (stereo not given) [THIORIDAZINE]
MIC, µg/mL: 12.5
//
Molecule: CN(C)CCCN1c2ccccc2Sc2ccc(Cl)cc21 [CHLORPROMAZINE]
MIC, µg/mL: 12.5
//
Molecule: CCCOc1ccc(-c2cn(CCN(CC)CC)c3ccccc3c2=O)cc1
MIC, µg/mL: 6.25

====

Listed here are molecules together with their documented MIC.
System: Mycobacterium avium
Conditions: 72 h
Description: Antimycobacterial activity against Mycobacterium avium 104 assessed as reduction in bacterial viability incubated for 3 days by MTT assay

Molecule: COc1ccc(CCN(C)CCCC(C#N)(c2ccc(OC)c(OC)c2)C(C)C)cc1OC (stereo not given)
Measured Target: Mycobacterium avium
Operator Symbol: =
MIC (µg/mL): 800

Molecule: CC[n+]1c(-c2ccccc2)c2cc(N)ccc2c2ccc(N)cc21.[Br-] [HOMIDIUM BROMIDE]
Measured Target: Mycobacterium avium
Operator Symbol: =
MIC (µg/mL): 25

Molecule: CCCOc1ccc(-c2cn(CCCN(C)C)c3ccccc3c2=O)cc1
Measured Target: Mycobacterium avium
Operator Symbol: >
MIC (µg/mL): 256

Molecule: CCCOc1ccc(-c2cn(CCN3CCCCC3)c3ccccc3c2=O)cc1
Measured Target: Mycobacterium avium
Operator Symbol: >
MIC (µg/mL): 256

Molecule: CCCOc1ccc(-c2cn(CCN3CCCCCC3)c3ccccc3c2=O)cc1
Measured Target: Mycobacterium avium
Operator Symbol: =
MIC (µg/mL): 256

Molecule: O=C(O)c1cn(C2CC2)c2cc(N3CCNCC3)c(F)cc2c1=O [CIPROFLOXACIN]
Measured Target: Mycobacterium avium
Operator Symbol: =
MIC (µg/mL): 16

Molecule: COc1ccc(-c2coc3cc(O)cc(O)c3c2=O)cc1 [BIOCHANIN]
Measured Target: Mycobacterium avium
Operator Symbol: >
MIC (µg/mL): 64

Molecule: CC1COc2c(N3CCN(C)CC3)c(F)cc3c(=O)c(C(=O)O)cn1c23 (stereo not given) [OFLOXACIN]
Measured Target: Mycobacterium avium
Operator Symbol: =
MIC (µg/mL): 16

Molecule: CN(C)CCCN1c2ccccc2Sc2ccc(Cl)cc21 [CHLORPROMAZINE]
Measured Target: Mycobacterium avium
Operator Symbol: =
MIC (µg/mL): 30

====

Tested on: Mycobacterium avium
Settings: isolate MAV2
Listed here are compounds together with their documented MIC.
Measured Metric: MIC (µg/mL)

Compound: CCCOc1ccc(-c2cn(CCN3CCCCCC3)c3ccccc3c2=O)cc1
Measured Metric: MIC
Operator Symbol: =
Observed Result: 512
//
Compound: CCCOc1ccc(-c2cn(CCN(CC)CC)c3ccccc3c2=O)cc1
Measured Metric: MIC
Operator Symbol: >
Observed Result: 512
//
Compound: CN(C)CCCN1c2ccccc2Sc2ccc(Cl)cc21
Measured Metric: MIC
Operator Symbol: >
Observed Result: 512
//
Compound: CCCOc1ccc(-c2cn(CCN3CCCCC3)c3ccccc3c2=O)cc1
Measured Metric: MIC
Operator Symbol: =
Observed Result: 512
//
Compound: CSc1ccc2c(c1)N(CCC1CCCCN1C)c1ccccc1S2 (stereo not given)
Measured Metric: MIC
Operator Symbol: >
Observed Result: 512

====

Listed here are compounds together with their documented MIC.
Test system: Mycobacterium avium
Conditions: 104 mc'2 3

Compound: CCCOc1ccc(-c2cn(CCN(CC)CC)c3ccccc3c2=O)cc1
MIC: 128 µg/mL
//
Compound: CCCOc1ccc(-c2cn(CCN3CCCCC3)c3ccccc3c2=O)cc1
MIC: < 4 µg/mL
//
Compound: CN(C)CCCN1c2ccccc2Sc2ccc(Cl)cc21 [CHLORPROMAZINE]
MIC: < 4 µg/mL
//
Compound: CCCOc1ccc(-c2cn(CCN3CCCCCC3)c3ccccc3c2=O)cc1
MIC: < 4 µg/mL
//
Compound: CSc1ccc2c(c1)N(CCC1CCCCN1C)c1ccccc1S2 (stereo not given) [THIORIDAZINE]
MIC: < 4 µg/mL

====

Listed here are molecules together with their documented MIC.
Test system: Mycobacterium avium
Details: 104 mc'2 3

Molecule: CSc1ccc2c(c1)N(CCC1CCCCN1C)c1ccccc1S2 (stereo not given)
MIC: > 512 µg/mL
//
Molecule: CCCOc1ccc(-c2cn(CCN3CCCCCC3)c3ccccc3c2=O)cc1
MIC: < 64 µg/mL
//
Molecule: CCCOc1ccc(-c2cn(CCN3CCCCC3)c3ccccc3c2=O)cc1
MIC: 512 µg/mL
//
Molecule: CN(C)CCCN1c2ccccc2Sc2ccc(Cl)cc21
MIC: > 512 µg/mL
//
Molecule: CCCOc1ccc(-c2cn(CCN(CC)CC)c3ccccc3c2=O)cc1
MIC: 512 µg/mL

====

Experiment: Cytotoxicity in human monocyte-derived macrophages assessed as reduction in cell viability incubated for 3 days by alamar blue dye based assay
Parameters: species or system Macrophage cell line
Conditions: macrophage cell line, 72 h

Compound: CN(C)CCCN1c2ccccc2Sc2ccc(Cl)cc21
MTC [µM]: 1.25
--
Compound: CCCOc1ccc(-c2cn(CCN(CC)CC)c3ccccc3c2=O)cc1
MTC [µM]: 10
--
Compound: COc1ccc(CCN(C)CCCC(C#N)(c2ccc(OC)c(OC)c2)C(C)C)cc1OC (configuration not stated)
MTC [µM]: 10
--
Compound: CSc1ccc2c(c1)N(CCC1CCCCN1C)c1ccccc1S2 (configuration not stated)
MTC [µM]: 2.5
--
Compound: CCCOc1ccc(-c2cn(CCN3CCCCCC3)c3ccccc3c2=O)cc1
MTC [µM]: 20
--
Compound: COc1ccc(-c2coc3cc(O)cc(O)c3c2=O)cc1
MTC [µM]: 20
--
Compound: CCCOc1ccc(-c2cn(CCN3CCCCC3)c3ccccc3c2=O)cc1
MTC [µM]: 40

====

Test system: Mycobacterium avium
Details: isolate MAV2
Measured Metric: MIC (µg/mL)

Compound: CCCOc1ccc(-c2cn(CCN(CC)CC)c3ccccc3c2=O)cc1
Observed Result: 0.5
--
Compound: CCCOc1ccc(-c2cn(CCN3CCCCC3)c3ccccc3c2=O)cc1
Observed Result: 1
--
Compound: CN(C)CCCN1c2ccccc2Sc2ccc(Cl)cc21
Observed Result: 2
--
Compound: CCCOc1ccc(-c2cn(CCN3CCCCCC3)c3ccccc3c2=O)cc1
Observed Result: 1
--
Compound: CSc1ccc2c(c1)N(CCC1CCCCN1C)c1ccccc1S2 (stereo not given)
Observed Result: 0.25

====

Test system: Mycolicibacterium smegmatis
Assay: Antimycobacterial activity against Mycobacterium smegmatis str. MC2 155 assessed as reduction in bacterial viability incubated for 3 days by MTT assay
Type: organism-based
Settings: 72 h
Listed here are compounds together with their documented MIC.

Compound: CSc1ccc2c(c1)N(CCC1CCCCN1C)c1ccccc1S2 (stereo not given)
Measured Target: Mycolicibacterium smegmatis
MIC: 30 µg/mL
--
Compound: CCCOc1ccc(-c2cn(CCN3CCNCC3)c3ccccc3c2=O)cc1
Measured Target: Mycolicibacterium smegmatis
MIC: > 256 µg/mL
--
Compound: CCCOc1ccc(-c2cn(CCN3CCCCC3)c3ccccc3c2=O)cc1
Measured Target: Mycolicibacterium smegmatis
MIC: 256 µg/mL
--
Compound: CCCOc1ccc(-c2cn(CCN3CCN(Cc4ccccc4)CC3)c3ccccc3c2=O)cc1
Measured Target: Mycolicibacterium smegmatis
MIC: 64 µg/mL
--
Compound: CCCOc1ccc(-c2cn(CCCN(C)C)c3ccccc3c2=O)cc1
Measured Target: Mycolicibacterium smegmatis
MIC: > 256 µg/mL

====

Listed here are compounds together with their documented MIC.
System: Mycobacterium avium
Conditions: isolate MAV2
Description: Inhibition of multidrug resistance efflux pump in Mycobacterium avium isolate MAV2 assessed as potentiation of clarithromycin -induced antibacterial activity by measuring clarithromycin MIC at 1/4 MIC incubated for 3 days by MTT assay (Rvb = >1024 ug/ml)
Measured Metric: MIC (µg/mL)

Compound: CN(C)CCCN1c2ccccc2Sc2ccc(Cl)cc21
Measured Target: Mycobacterium avium
Operator Symbol: >
Observed Result: 512

Compound: CSc1ccc2c(c1)N(CCC1CCCCN1C)c1ccccc1S2 (stereo not given)
Measured Target: Mycobacterium avium
Operator Symbol: >
Observed Result: 512

Compound: CCCOc1ccc(-c2cn(CCN3CCCCC3)c3ccccc3c2=O)cc1
Measured Target: Mycobacterium avium
Operator Symbol: =
Observed Result: 512

Compound: CCCOc1ccc(-c2cn(CCN3CCCCCC3)c3ccccc3c2=O)cc1
Measured Target: Mycobacterium avium
Operator Symbol: =
Observed Result: 256

Compound: CCCOc1ccc(-c2cn(CCN(CC)CC)c3ccccc3c2=O)cc1
Measured Target: Mycobacterium avium
Operator Symbol: =
Observed Result: 1020
